- method.summary: Pharmacokinetic evaluation in humans
- Format: in vivo
- experimental.setup: human, plasma, 300 mg, noncompartmental, read-out: Vss, Minimum, maximum
assay.endpoint: Vd

Query: Return the recorded Vd value; entry: C[C@H](NC(=O)[C@H](CCC(=O)O)NC(=O)CCCC[C@@H]1CCSS1)C(=O)O [RLip-EA-OH, N-(R)-lipoyl-L-glutamyl-L- alanine]
Reply: 8.9 to 15.1 L

###

- method.summary: Pharmacokinetic evaluation in humans
- Assay type: in vivo
- experimental.setup: human, plasma, 300 mg, compartmental, read-out: CL, Median (converted)
assay.endpoint: clearance (mL/min)
Report only the number, with the unit mL/min understood.

Query: Query clearance for C[C@H](NC(=O)[C@H](CCC(=O)O)NC(=O)CCCC[C@@H]1CCSS1)C(=O)O [RLip-EA-OH, N-(R)-lipoyl-L-glutamyl-L- alanine]
Reply: 305

###

- method.summary: Pharmacokinetic evaluation in humans
- Assay type: in vivo
- experimental.setup: human, plasma, 60 mg, compartmental, read-out: AUCinf, Mean (SD)
assay.endpoint: AUC(0-inf) (ng·h/mL)
Answer with a number only, understood to be in ng·h/mL.

Query: Provide measured AUC(0-inf) value, entry: C[C@H](NC(=O)[C@H](CCC(=O)O)NC(=O)CCCC[C@@H]1CCSS1)C(=O)O [RLip-EA-OH, N-(R)-lipoyl-L-glutamyl-L- alanine]
Reply: 2260

###

- method.summary: Pharmacokinetic evaluation in humans
- Assay type: in vivo
- experimental.setup: human, plasma and urine, 150 mg, noncompartmental, read-out: Renal clearance, Median (converted)
assay.endpoint: CL renal (mL/min)
Numeric answer only, unit mL/min assumed.

Query: Look up and state reported CL renal for C[C@H](NC(=O)[C@H](CCC(=O)O)NC(=O)CCCC[C@@H]1CCSS1)C(=O)O [RLip-EA-OH, N-(R)-lipoyl-L-glutamyl-L- alanine]
Reply: 98

###

- method.summary: Pharmacokinetic evaluation in humans
- Format: in vivo
- experimental.setup: human, plasma, 60 mg, noncompartmental, read-out: AUC0-t, Mean (SD)
assay.endpoint: AUC(0-t) (ng·h/mL)
Enter your answer as a number in ng·h/mL; do not include the unit.

Query: Identify AUC(0-t) associated with the compound C[C@H](NC(=O)[C@H](CCC(=O)O)NC(=O)CCCC[C@@H]1CCSS1)C(=O)O [RLip-EA-OH, N-(R)-lipoyl-L-glutamyl-L- alanine]
Reply: 2250

###

- method.summary: Pharmacokinetic evaluation in humans
- Assay type: in vivo
- experimental.setup: human, plasma, 300 mg, noncompartmental, read-out: Vss, Mean (SD)
assay.endpoint: Vd (L)
Provide the reading as a plain figure in L.

Query: Give the value of Vd reported for the following: C[C@H](NC(=O)[C@H](CCC(=O)O)NC(=O)CCCC[C@@H]1CCSS1)C(=O)O [RLip-EA-OH, N-(R)-lipoyl-L-glutamyl-L- alanine]
Reply: 11.7

###

- method.summary: Pharmacokinetic evaluation in humans
- Format: in vivo
- experimental.setup: human, plasma, 60 mg, noncompartmental, read-out: Vss, Minimum, maximum
assay.endpoint: Vd

Query: Entry C[C@H](NC(=O)[C@H](CCC(=O)O)NC(=O)CCCC[C@@H]1CCSS1)C(=O)O [RLip-EA-OH, N-(R)-lipoyl-L-glutamyl-L- alanine] needs its Vd filled in; supply it.
Reply: 11.3 to 18.6 L

###

- method.summary: Pharmacokinetic evaluation in humans
- Assay type: in vivo
- experimental.setup: human, plasma and urine, 60 mg, noncompartmental, read-out: Renal clearance, Minimum, maximum
assay.endpoint: CL renal

Query: Supply measured CL renal of C[C@H](NC(=O)[C@H](CCC(=O)O)NC(=O)CCCC[C@@H]1CCSS1)C(=O)O [RLip-EA-OH, N-(R)-lipoyl-L-glutamyl-L- alanine] in your reply.
Reply: 135 to 220 mL/min

###

- method.summary: Pharmacokinetic evaluation in humans
- Format: in vivo
- experimental.setup: human, plasma, 300 mg, noncompartmental, read-out: CL, Minimum, maximum
assay.endpoint: clearance

Query: Determine its reported clearance: C[C@H](NC(=O)[C@H](CCC(=O)O)NC(=O)CCCC[C@@H]1CCSS1)C(=O)O [RLip-EA-OH, N-(R)-lipoyl-L-glutamyl-L- alanine]
Reply: 217 to 430 mL/min

###

- method.summary: Pharmacokinetic evaluation in humans
- Assay type: in vivo
- experimental.setup: human, plasma, 300 mg, noncompartmental, read-out: CL, Median (converted)
assay.endpoint: clearance (mL/min)
State just the number; it will be interpreted in mL/min.

Query: Identify measured clearance associated with C[C@H](NC(=O)[C@H](CCC(=O)O)NC(=O)CCCC[C@@H]1CCSS1)C(=O)O [RLip-EA-OH, N-(R)-lipoyl-L-glutamyl-L- alanine]
Reply: 303

###

- method.summary: Pharmacokinetic evaluation in humans
- Type: in vivo
- experimental.setup: human, plasma, 150 mg, noncompartmental, read-out: Cmax, Median
assay.endpoint: Cmax (ng/mL)
Hi! Could you send only the number? It should be in ng/mL, unit omitted.

Query: For C[C@H](NC(=O)[C@H](CCC(=O)O)NC(=O)CCCC[C@@H]1CCSS1)C(=O)O [RLip-EA-OH, N-(R)-lipoyl-L-glutamyl-L- alanine] , write its Cmax.
Reply: 17000

###

- method.summary: Pharmacokinetic evaluation in humans
- Format: in vivo
- experimental.setup: human, plasma, 150 mg, compartmental, read-out: CL, Median (converted)
assay.endpoint: clearance (mL/min)
The reply should contain only the number, in mL/min.

Query: Give a short answer stating reported clearance for C[C@H](NC(=O)[C@H](CCC(=O)O)NC(=O)CCCC[C@@H]1CCSS1)C(=O)O [RLip-EA-OH, N-(R)-lipoyl-L-glutamyl-L- alanine] .
Reply: 363

###

- method.summary: Pharmacokinetic evaluation in humans
- Assay type: in vivo
- experimental.setup: human, plasma, 20 mg, compartmental, read-out: CL, Mean (SD) (converted)
assay.endpoint: clearance (mL/min)
API: value field is a number in mL/min; no unit string.

Query: Look up clearance of C[C@H](NC(=O)[C@H](CCC(=O)O)NC(=O)CCCC[C@@H]1CCSS1)C(=O)O [RLip-EA-OH, N-(R)-lipoyl-L-glutamyl-L- alanine] and report it.
Reply: 557

###

- method.summary: Pharmacokinetic evaluation in humans
- Format: in vivo
- experimental.setup: human, plasma, 300 mg, noncompartmental, read-out: t1/2, Mean (SD) (converted)
assay.endpoint: half-life (h)
Record the value in h, omitting the unit from your answer.

Query: Please give measured half-life of the following entry: C[C@H](NC(=O)[C@H](CCC(=O)O)NC(=O)CCCC[C@@H]1CCSS1)C(=O)O [RLip-EA-OH, N-(R)-lipoyl-L-glutamyl-L- alanine]
Reply: 1.45

###

- method.summary: Pharmacokinetic evaluation in humans
- Type: in vivo
- experimental.setup: human, plasma, 20 mg, noncompartmental, read-out: AUC0-t, Median
assay.endpoint: AUC(0-t) (ng·h/mL)
Supply the numeric figure in ng·h/mL, leaving out any unit text.

Query: Please give measured AUC(0-t) of the following entry: C[C@H](NC(=O)[C@H](CCC(=O)O)NC(=O)CCCC[C@@H]1CCSS1)C(=O)O [RLip-EA-OH, N-(R)-lipoyl-L-glutamyl-L- alanine]
Reply: 556

###

- method.summary: Pharmacokinetic evaluation in humans
- Type: in vivo
- experimental.setup: human, plasma, 300 mg, noncompartmental, read-out: t1/2, Minimum, maximum
assay.endpoint: half-life

Query: Read the entry C[C@H](NC(=O)[C@H](CCC(=O)O)NC(=O)CCCC[C@@H]1CCSS1)C(=O)O [RLip-EA-OH, N-(R)-lipoyl-L-glutamyl-L- alanine] and write its reported half-life.
Reply: 0.99 to 2.35 h

###

- method.summary: Pharmacokinetic evaluation in humans
- Assay type: in vivo
- experimental.setup: human, plasma, 150 mg, noncompartmental, read-out: AUCinf, Minimum, maximum
assay.endpoint: AUC(0-inf)

Query: Note down AUC(0-inf) recorded for C[C@H](NC(=O)[C@H](CCC(=O)O)NC(=O)CCCC[C@@H]1CCSS1)C(=O)O [RLip-EA-OH, N-(R)-lipoyl-L-glutamyl-L- alanine]
Reply: 4980 to 9340 ng·h/mL

###

- method.summary: Pharmacokinetic evaluation in humans
- Format: in vivo
- experimental.setup: human, plasma, 150 mg, compartmental, read-out: t1/2, Median (converted)
assay.endpoint: half-life (h)
Give the value, in units of h, as a plain number.

Query: Identify measured half-life corresponding to C[C@H](NC(=O)[C@H](CCC(=O)O)NC(=O)CCCC[C@@H]1CCSS1)C(=O)O [RLip-EA-OH, N-(R)-lipoyl-L-glutamyl-L- alanine]
Reply: 1.4

###

- method.summary: Pharmacokinetic evaluation in rats
- Assay type: in vivo
- experimental.setup: both sexes, rat, serum, intravenous; rats; dose of 30 mg/kg; read-out: serum half-life
assay.endpoint: half-life

Query: Find the measured half-life of C[C@H](NC(=O)[C@H](CCC(=O)O)NC(=O)CCCC[C@@H]1CCSS1)C(=O)O [RLip-EA-OH, N-(R)-lipoyl-L-glutamyl-L- alanine] and report it.
Reply: ~9 min

Reference source: patent US8772250B2
